The measurements presented in this section are drawn from the RNAGym collection of RNA variant scans (doi:10.7554/elife.80360).

B1: CPEB3 Ribozyme (parent)
chain: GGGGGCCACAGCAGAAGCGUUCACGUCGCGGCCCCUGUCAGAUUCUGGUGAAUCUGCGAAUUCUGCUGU

variants of: B1; assay: self-cleavage, relative activity (ratio to wild type); higher = more cleavage; co-transcriptional
Outcome label depends on self-cleavage relative to 0.6: at/above gives satisfied, below gives not satisfied.

Q: Say whether C22G U46C shows self-cleavage of 0.6 or more.
A: not satisfied

Q: Say whether C57U A60G shows self-cleavage of 0.6 or more.
A: not satisfied

Q: Say whether A15G G56U shows self-cleavage of 0.6 or more.
A: satisfied

Q: Say whether G11U G65C shows self-cleavage of 0.6 or more.
A: not satisfied

Q: Say whether U53A C63U shows self-cleavage of 0.6 or more.
A: satisfied

Q: Say whether G4A C7A shows self-cleavage of 0.6 or more.
A: not satisfied

Q: Say whether C7A G19C shows self-cleavage of 0.6 or more.
A: not satisfied

Q: Say whether G19A C22U shows self-cleavage of 0.6 or more.
A: not satisfied

Q: Say whether C22G C63G shows self-cleavage of 0.6 or more.
A: not satisfied

Q: Say whether C54U G65C shows self-cleavage of 0.6 or more.
A: not satisfied

Q: Say whether G3A C63G shows self-cleavage of 0.6 or more.
A: not satisfied

Q: Say whether G14C U21C shows self-cleavage of 0.6 or more.
A: not satisfied

Q: Say whether C35G G58U shows self-cleavage of 0.6 or more.
A: not satisfied

Q: Say whether G5A A10C shows self-cleavage of 0.6 or more.
A: satisfied

Q: Say whether G3U C22G shows self-cleavage of 0.6 or more.
A: not satisfied

Q: Say whether G1A G37C shows self-cleavage of 0.6 or more.
A: not satisfied

Q: Say whether G37A G68A shows self-cleavage of 0.6 or more.
A: not satisfied

Q: Say whether A42G U67G shows self-cleavage of 0.6 or more.
A: satisfied

Q: Say whether U46G C54G shows self-cleavage of 0.6 or more.
A: satisfied

Q: Say whether A13U U36G shows self-cleavage of 0.6 or more.
A: not satisfied

Q: Say whether C18A U21A shows self-cleavage of 0.6 or more.
A: not satisfied

Q: Say whether C22A G25U shows self-cleavage of 0.6 or more.
A: not satisfied

Q: Say whether C33A G50C shows self-cleavage of 0.6 or more.
A: satisfied
